Staphylococcus aureus (NEWP0023) MIC data

Example entries begin here.
>>> print(df.to_string())
                                   compound    measured
0  CNC(C)C1CCC(N)C(OC2C(N)CC(N)C(OC3OCC(C)(O)C(NC)C3O)C2O)O1 (stereo not shown) [gentamicin, reference compound]  ≤ 0.5 mg/L
1  COc1c(O)cc2oc(-c3ccc(O)cc3)c(O[C@@H]3O[C@H](CO)[C@@H](O)[C@H](O)[C@H]3O)c(=O)c2c1O  ≥ 500 mg/L
2  COc1c(O)cc2oc(-c3ccc(O)cc3)c(O)c(=O)c2c1O    250 mg/L

Could you now consider this next compound?
### Prompt Reported MIC for Staphylococcus aureus (NEWP0023), given COc1c(O)cc2oc(-c3ccc(O)cc3)c(OC3OC(COC(=O)C=Cc4ccc(O)cc4)C(O)C(O)C3O)c(=O)c2c1O (stereo not shown) ?
### Response ≥ 500 mg/L

These data points were gathered from paper PMC12223841.
